meta.source: paper PMC8567202

# assayed-system: T1, Smad2-E425K (UniProt Q62432 1-467, E425K)
# T1 construct: Smad2, full length, charge-reversal point mutant E425K; source: E. coli BL21 RIL codon plus, purified (Ni-NTA)
# T1 sequence (Q62432 whole entry E425K): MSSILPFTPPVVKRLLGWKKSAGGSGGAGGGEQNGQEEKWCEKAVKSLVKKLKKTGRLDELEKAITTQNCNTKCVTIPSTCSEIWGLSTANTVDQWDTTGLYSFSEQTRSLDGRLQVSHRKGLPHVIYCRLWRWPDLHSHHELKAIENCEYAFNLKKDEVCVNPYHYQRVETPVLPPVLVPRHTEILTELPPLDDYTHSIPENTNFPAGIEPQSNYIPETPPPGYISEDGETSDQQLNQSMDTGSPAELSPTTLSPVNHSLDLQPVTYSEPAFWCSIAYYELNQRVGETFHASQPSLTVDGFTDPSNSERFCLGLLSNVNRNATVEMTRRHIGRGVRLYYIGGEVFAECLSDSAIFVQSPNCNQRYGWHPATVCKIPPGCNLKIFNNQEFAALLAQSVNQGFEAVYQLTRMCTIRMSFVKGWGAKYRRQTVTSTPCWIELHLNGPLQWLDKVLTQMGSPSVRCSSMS
# method: fluorescence polarisation; fluorescence anisotropy; F-Ahx-labelled peptide fixed (2.5 μM in the methods, 2.5 nM in the legend), Smad2 WT or mutant varied (0-250 μM in the methods, 0-150 μM in the legend); 20 mM Tris pH 7.9, 160 mM NaCl; 10 min incubation
# run-conditions: both partners purified
pKd: −log10 of the molar value. Square brackets hold non-standard residues; d marks the D form. Ends that are not written are not given here. fluorescein = fluorescein-6-aminohexanoyl (F-Ahx); pS = N[C@@H](COP(=O)(O)O)C(=O)O; Ahx = NCCCCCC(=O)O
measured-quantity: pKd

binder | recorded-result
{fluorescein-Ahx}-YDMTT[pS]G[pS]G[pS]GLPLL (type I TGF-β receptor (TβRI), GS region, triply phosphorylated; also called GS peptide; TβRI peptide; source: synthetic peptide; bought: AlanScientific) [TβRI GS region peptide (F-Ahx-YDMTTpSGpSGpSGLPLL)] | 5.10
{fluorescein-Ahx}-ADNKDNGT (type I TGF-β receptor (TβRI), L45 loop; also called L45 peptide; L45 loop peptide; source: synthetic peptide; bought: AlanScientific) [TβRI L45 loop region peptide (F-Ahx-ADNKDNGT)] | 4.26
